# viability at 2 h, 100 µM per record follows
Experiment summary: in vitro
Assay setup: human, U2OS-HA-hNTCP cells
Report as a plain number; the unit % is understood.

Answered cases to consult:
| Compound | Unit of measure | viability at 2 h, 100 µM |
| --- | --- | --- |
| Cc1c(Cl)cccc1Nc1ccccc1C(=O)O | % | 107 |
| Cc1cc(-n2c(=O)[nH]c(=O)n(C)c2=O)ccc1Oc1ccc(SC(F)(F)F)cc1 | % | 105 |
| CN(CCOc1ccc(CC2SC(=O)NC2=O)cc1)c1ccccn1 (stereo not shown) | % | 103 |

# evaluate next
Field request: viability at 2 h, 100 µM | item: O=C(O)c1cc(/N=N/c2ccc(S(=O)(=O)Nc3ccccn3)cc2)ccc1O
85

====

Target or system: human NTCP (Homo sapiens, UniProt Q14973)
Experiment summary: Screening taurocholate uptake assay (96-well, [14C]taurocholate, 10 µM drug)
Assay setup: Prestwick library screen, 10 µM drug; B-score of taurocholate uptake
Where a name gives a salt, the structure may show the parent alone. Non-standard residues stand in square brackets, D forms with d. Residues, ends and D or L forms follow the SMILES beside them. pGlu = O=C1CC[C@@H](C(=O)O)N1; Thz = O=C(O)[C@@H]1CSCN1
B-score functional assay reference
Form: value (number only, do not type unit).

Known B-score functional assay results, listed for orientation:
| Molecule | B-score functional assay |
| --- | --- |
| CCN(CC)CCNC(C(=O)OCCC(C)C)c1ccccc1.Cl.Cl (stereo not drawn) [Camylofine chlorhydrate] | 1.768 |
| O=C1CC[C@@H](C(=O)N2CSC[C@H]2C(=O)O)N1 [Pidotimod] ([pGlu]-[Thz]-OH) | 1.132 |
| CC(C)NCC(O)c1ccc(O)c(O)c1.Cl (single isomer, unassigned; (-)) [(-)-Isoproterenol hydrochloride] | 0.061 |
| CCSc1ccc2c(c1)N(CCCN1CCN(C)CC1)c1ccccc1S2.O=C(O)CC(O)C(=O)O.O=C(O)CC(O)C(=O)O [Thiethylperazine dimalate] | 0.623 |
| Cl.N[C@@H]1CCCCN(c2c(F)cc3c(=O)c(C(=O)O)cn(C4CC4)c3c2Cl)C1 [Besifloxacin hydrochloride] | 1.274 |
| Nc1nc(=O)n([C@@H]2CS[C@H](CO)O2)cc1F [(-)-Emtricitabine] | 1.373 |
| Nc1nc(O)c2[nH]nnc2n1 | 3.711 |
| NCCCCCC(=O)O | 1.656 |
| CN(C)CC/C=C1/c2ccccc2COc2ccc(CC(=O)O)cc21 [Olopatadine hydrochloride] | 1.227 |
| CC[C@H]1OC(=O)C[C@@H](O)[C@H](C)[C@@H](O[C@@H]2O[C@H](C)[C@@H](O[C@H]3C[C@@](C)(O)[C@@H](O)[C@H](C)O3)[C@H](N(C)C)[C@H]2O)[C@@H](CC=O)C[C@@H](C)C(=O)/C=C/C(C)=C/[C@@H]1CO[C@@H]1O[C@H](C)[C@@H](O)[C@@H](OC)[C@H]1OC | 0.165 |

Which measured B-score functional assay value corresponds to Cc1cc2c(cc1S(N)(=O)=O)S(=O)(=O)CCC2 ?
3.166

Any idea what its B-score functional assay is? The molecule is O=C1CN2Cc3c(ccc(Cl)c3Cl)N=C2N1 [Anagrelide]
0.197

What does the record list as B-score functional assay for Cc1cc2c(s1)Nc1ccccc1N=C2N1CCN(C)CC1 ?
0.458

Field request: B-score functional assay | item: CO[C@@H]1[C@@H](OC(N)=O)[C@@H](O)[C@H](Oc2ccc3c([O-])c(NC(=O)c4ccc(O)c(CC=C(C)C)c4)c(=O)oc3c2C)OC1(C)C.[Na+] [Novobiocin sodium salt]
1.027

Which measured B-score functional assay value corresponds to COc1ccc(C2CNC(=O)C2)cc1OC1CCCC1 (stereo not drawn) ?
0.524

====

Experiment summary: WST-1 cytotoxicity, wildtype U2OS cells
Assay setup: human, wildtype U2OS cells
# Lookup of reported viability at 2 h, 1 µM keyed by entry
// units = %; emit number, no label

| Compound | Reported result |
| --- | --- |
| O=C(O)c1ccccc1Nc1cccc(C(F)(F)F)c1 | 109 |
| CN(CCOc1ccc(CC2SC(=O)NC2=O)cc1)c1ccccn1 (centres unmarked) | 104 |
| O=C(O)Cc1cc(I)c(Oc2ccc(O)c(I)c2)c(I)c1 | 100 |
| CC(C)c1ccc2oc3nc(N)c(C(=O)O)cc3c(=O)c2c1 | 88.2 |

Then this compound:
# lookup: viability at 2 h, 1 µM of Cc1cc(-n2c(=O)[nH]c(=O)n(C)c2=O)ccc1Oc1ccc(SC(F)(F)F)cc1
115

====

Here the recorded B-score functional assay is given for each entry.
Target or system: human NTCP (Homo sapiens, UniProt Q14973)
Experiment summary: Screening taurocholate uptake assay (96-well, [14C]taurocholate, 10 µM drug)
Assay setup: Prestwick library screen, 10 µM drug; B-score of taurocholate uptake
Quick one: just the number, no unit, thanks!

| Molecule | Measure | Reported result |
| --- | --- | --- |
| C[C@H]1C[C@@H]2[C@H]([C@@H](O)C[C@@]3(C)[C@H]2CC[C@]3(O)C(=O)CO)[C@@]2(C)C=CC(=O)C=C12 [Methylprednisolone, 6-alpha] | B-score functional assay | 0.477 |
| CN(C)[C@@H]1C(O)=C(C(N)=O)C(=O)[C@@]2(O)C(O)=C3C(=O)c4c(O)cccc4[C@@](C)(O)[C@H]3[C@H](O)[C@@H]12 [Oxytetracycline dihydrate] | B-score functional assay | 0.414 |

Bench note: what B-score functional assay did O.O=P(O)(O)C(O)(Cc1cccnc1)P(=O)(O)O [Risedronic acid monohydrate] show?
1.315

Give its B-score functional assay value. Item: CCCCNc1ccc(C(=O)OCCN(C)C)cc1.Cl [Tetracaïne hydrochloride]
0.799

====

Target or system: human NTCP (Homo sapiens)
Sequence (Q14973 1-349): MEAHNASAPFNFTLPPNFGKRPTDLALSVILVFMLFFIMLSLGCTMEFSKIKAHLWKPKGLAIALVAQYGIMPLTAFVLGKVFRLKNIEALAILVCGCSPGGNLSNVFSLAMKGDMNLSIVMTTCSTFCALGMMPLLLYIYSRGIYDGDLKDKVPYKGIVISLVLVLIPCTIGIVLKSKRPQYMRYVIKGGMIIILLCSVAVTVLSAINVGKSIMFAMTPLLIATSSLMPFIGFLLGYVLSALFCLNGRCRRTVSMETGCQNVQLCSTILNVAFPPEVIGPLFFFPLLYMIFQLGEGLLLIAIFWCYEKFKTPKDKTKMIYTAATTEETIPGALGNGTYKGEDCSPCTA
Experiment summary: Screening taurocholate uptake assay (96-well, [14C]taurocholate, 10 µM drug)
Assay setup: combined ranking from functional and binding assay B-scores
Structures can show the parent of a compound that is named as a salt.
Measure: Ranking score
Just the number.

Recorded Ranking score, per entry:
| Molecule | Target or system | Reported result |
| --- | --- | --- |
| O=c1[nH]cnc2c1ncn2[C@H]1CC[C@@H](CO)O1 | human NTCP (Homo sapiens) | 927.069 |
| CN1CCC(=C2c3ccccc3CCc3cccnc32)CC1 [Azatadine maleate] | human NTCP (Homo sapiens) | 1070.86 |
| CC(C)(C)NC[C@H](O)COc1nsnc1N1CCOCC1.O=C(O)/C=C\C(=O)O [Timolol maleate salt] | human NTCP (Homo sapiens) | 1052.08 |
| COc1ccc(C(Cl)=C(c2ccc(OC)cc2)c2ccc(OC)cc2)cc1 | human NTCP (Homo sapiens) | 983.616 |
| NS(=O)(=O)c1cc(Cl)c(Cl)c(S(N)(=O)=O)c1 [Dichlorphenamide] | human NTCP (Homo sapiens) | 1091.62 |
| Cc1ccccc1N1C(=O)c2cc(S(N)(=O)=O)c(Cl)cc2NC1C (centres unmarked) | human NTCP (Homo sapiens) | 1031.7 |
| C[C@H]1C[C@@H]2[C@H]([C@@H](O)C[C@@]3(C)[C@H]2CC[C@]3(O)C(=O)CO)[C@@]2(C)C=CC(=O)C=C12 | human NTCP (Homo sapiens) | 941.018 |

Would you kindly share the measured Ranking score for C[C@@H](O)[C@H]1C(=O)N2C(C(=O)O)=C(S[C@@H]3CN[C@H](C(=O)N(C)C)C3)[C@H](C)[C@H]12 ?
900.139

====

Entries and their B-score functional assay
Target or system: UniProt:Q14973
Experiment summary: Screening taurocholate uptake assay (96-well, [14C]taurocholate, 10 µM drug)
Assay setup: Prestwick library screen, 10 µM drug; B-score of taurocholate uptake
Just the number, please.

Example compounds with recorded B-score functional assay:
| Compound | Reported result |
| --- | --- |
| CC(C)(Sc1cc(C(C)(C)C)c(O)c(C(C)(C)C)c1)Sc1cc(C(C)(C)C)c(O)c(C(C)(C)C)c1 [Probucol] | 0.089 |
| CC(Cc1ccccc1)NCCC(c1ccccc1)c1ccccc1 (stereo not shown) [Prenylamine lactate] | 1.102 |
| CCN(CC)CCOC(=O)C1(c2ccc([N+](=O)[O-])cc2)CCCC1.Cl [Nitrocaramiphen hydrochloride] | 0.881 |

Bench note: what B-score functional assay did Cl.Nc1c(Br)cc(Br)cc1CNC1CCC(O)CC1 (stereo not shown) [Ambroxol hydrochloride] show?
0.006
